# experiment: The drug is tested on WLS-006 corresponding to human gut metagenome with ENA study accession number: PRJEB37062 and ENA sample accession number: ERS12561741 for biotransformation under anaerobic condition. The drug concentrations were measured over 9 timepoints collected between 0 and 24 hours of incubation by liquid-chromatography-coupled mass spectrometry (LC–MS); note: call rule not given here
# experimental conditions: 2 µM
quantity kind: Bacterial Biotransformation

Before answering, review these 10 worked examples.
- molecule: "CCOc1ccc(NC(C)=O)cc1 [PHENACETIN]"
  result: "Compound NOT metabolized"
- molecule: "O=C(CCCN1CCC(O)(c2ccc(Cl)cc2)CC1)c1ccc(F)cc1 [HALOPERIDOL]"
  result: "Compound metabolized"
- molecule: "CC(C)NCC(O)COc1ccc(CCOCC2CC2)cc1 (stereo unspecified) [BETAXOLOL]"
  result: "Compound NOT metabolized"
- molecule: "CC(=O)O[C@]1(C(C)=O)CC[C@H]2[C@@H]3C=C(Cl)C4=CC(=O)[C@@H]5C[C@@H]5[C@]4(C)[C@H]3CC[C@@]21C [CYPROTERONE ACETATE]"
  result: "Compound metabolized"
- molecule: "CC(=O)OCC(=O)[C@@]12N=C(C)O[C@@H]1C[C@H]1[C@@H]3CCC4=CC(=O)C=C[C@]4(C)[C@H]3[C@@H](O)C[C@@]12C [DEFLAZACORT]"
  result: "Compound metabolized"
- molecule: "Nc1ccc(/N=N/c2ccccc2)c(N)n1 [PHENAZOPYRIDINE]"
  result: "Compound metabolized"
- molecule: "CC[C@@H](CO)NC(=O)[C@@H]1C=C2c3cccc4c3c(cn4C)C[C@H]2N(C)C1.O=C(O)/C=C\\C(=O)O [METHYSERGIDE MALEATE]"
  result: "Compound NOT metabolized"
- molecule: "O=c1[nH]c2ccccc2n1CCCN1CCC(n2c(=O)[nH]c3cc(Cl)ccc32)CC1 [DOMPERIDONE]"
  result: "Compound NOT metabolized"
- molecule: "CCOC(=O)[C@H](CCc1ccccc1)N[C@@H](C)C(=O)N1[C@H](C(=O)O)C[C@H]2CCCC[C@@H]21 [TRANDOLAPRIL]"
  result: "Compound metabolized"
- molecule: "Cc1ccc(-c2cc(C(F)(F)F)nn2-c2ccc(S(N)(=O)=O)cc2)cc1 [CELECOXIB]"
  result: "Compound metabolized"

# lookup: Bacterial Biotransformation of CN1CCC(=C2c3ccccc3CCc3cccnc32)CC1.O=C(O)/C=C\C(=O)O.O=C(O)/C=C\C(=O)O [AZATADINE MALEATE]
Compound NOT metabolized

How about this molecule: `CCCc1nc2c(C)cc(-c3nc4ccccc4n3C)cc2n1Cc1ccc(-c2ccccc2C(=O)O)cc1`
Compound metabolized

Request: CCN(CC)CCOC(=O)C(Cc1cccc2ccccc12)CC1CCCO1.O=C(O)C(=O)O (stereo unspecified) [NAFRONYL OXALATE]
Compound metabolized

Repeat for the following molecule: COc1c2occc2cc2ccc(=O)oc12 [METHOXSALEN]
Compound metabolized

Subsequent entry: CC(C)NCC(O)c1ccc(NS(C)(=O)=O)cc1 (stereo unspecified) [SOTALOL]
Compound NOT metabolized

CC(C)c1nc(CN(C)C(=O)N[C@H](C(=O)N[C@@H](Cc2ccccc2)C[C@H](O)[C@H](Cc2ccccc2)NC(=O)OCc2cncs2)C(C)C)cs1 [RITONAVIR] ?
Compound metabolized
